target: 5-HT2 receptors (Rattus norvegicus); construct: cortical tissue is dissected and weighed; from tissue; host or cells: cortex of male Wistar rats, crude membranes; assay: Inhibition of 3H-ketanserin binding to 5-HT2 receptors in rat cortex in vitro; conditions: 3H-Ketanserin 0.5 nM, rat cortex, 37° C., 30 min; read-out: Receptor Binding; IC50 5-HT2 3H-Ket
Sequence (P14842 whole entry): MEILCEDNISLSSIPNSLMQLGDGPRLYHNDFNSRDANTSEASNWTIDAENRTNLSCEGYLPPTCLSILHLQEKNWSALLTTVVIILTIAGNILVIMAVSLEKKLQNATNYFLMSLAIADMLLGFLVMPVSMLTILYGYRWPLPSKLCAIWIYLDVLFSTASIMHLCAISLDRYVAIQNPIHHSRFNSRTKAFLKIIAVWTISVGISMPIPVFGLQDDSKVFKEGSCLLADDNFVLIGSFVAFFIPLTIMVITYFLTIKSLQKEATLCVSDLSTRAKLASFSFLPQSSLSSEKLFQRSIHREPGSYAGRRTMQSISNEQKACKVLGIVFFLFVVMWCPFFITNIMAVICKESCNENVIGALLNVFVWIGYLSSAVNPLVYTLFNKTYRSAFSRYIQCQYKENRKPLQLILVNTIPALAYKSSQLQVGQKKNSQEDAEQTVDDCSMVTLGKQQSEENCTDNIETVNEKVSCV
Entries and their IC50 values follow.
Report the figure in µM without appending any unit label.

- Molecule: "O=C1NCCCN1CCN1CCN([C@@H]2C[C@@H](c3ccc(F)cc3)c3cc(Cl)ccc32)CC1 (single isomer, unassigned) [(+)-34]"
  Recorded value: 0.12

If you can, please state the reported IC50 value of CC(C)N1CCN(CCN2CCN([C@@H]3C[C@@H](c4ccc(F)cc4)c4cc(Cl)ccc43)CC2)C1=O (relative stereo) [Compound 11] .
0.0039

Ok, now OCCN1CCN([C@H]2C[C@H](c3ccc(F)cc3)c3cc(Cl)ccc32)CC1 (single isomer, unassigned) [(+)-3]
0.23

Ok, now Cc1cc([C@@H]2C[C@@H](N3CCN(CCO)CC3)c3ccc(Cl)cc32)cs1 (relative stereo)
0.056

Ok, now CC(C)N1CCN(CCN2CCN([C@@H]3C[C@@H](c4ccc(F)cc4)c4cc(Cl)ccc43)CC2)C1=S (relative stereo)
0.0036

Ok, now CSc1ccc2c(c1)[C@H](c1ccc(F)cc1)C[C@H]2N1CCN(CCN2CCN(C(C)C)C2=O)CC1 (relative stereo)
0.004

The reported numbers originate from patent US5643784A.
